This collection of values is drawn from PubChem BioAssay.

- EXPERIMENTAL SYSTEM: Left-right determination factor 2 (Homo sapiens) (UniProt O00292)
- Sequence (O00292 whole entry, looked up): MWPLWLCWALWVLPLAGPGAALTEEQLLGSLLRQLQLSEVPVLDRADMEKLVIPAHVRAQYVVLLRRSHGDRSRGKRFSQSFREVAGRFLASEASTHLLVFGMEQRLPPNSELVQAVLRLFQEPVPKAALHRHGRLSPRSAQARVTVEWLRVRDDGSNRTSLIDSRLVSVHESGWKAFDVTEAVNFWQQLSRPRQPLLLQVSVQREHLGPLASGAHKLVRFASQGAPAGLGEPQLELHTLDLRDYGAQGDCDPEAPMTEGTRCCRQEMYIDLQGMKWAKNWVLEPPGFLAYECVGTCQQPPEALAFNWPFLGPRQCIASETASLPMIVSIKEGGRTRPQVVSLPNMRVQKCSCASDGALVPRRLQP
- MEASUREMENT PROTOCOL: small molecules binding LEFTY2 protein – biochemical, small-molecule microarray, 635 nm fluorescence scan, primary screen (AID 1110)
- CONDITIONS: higher = more signal
Reported values of composite z-score for individual entries

COMPOUND: O=C1OCCC=C[C@H]2OC34C=CCN(c5ccc(Cl)cc5)C(=O)[C@H]3N(CCCO)C(=O)[C@@H]4C12 (stereo partly drawn)
composite z-score: -0.131
--
COMPOUND: COc1ccc([Si](C)(C)[C@@H]2[C@@H](CC(=O)N3Cc4ccccc4C[C@H]3CO)O[C@]3(C(=O)N(Cc4cccc(N5CCC5=O)c4)c4ccccc43)[C@H]2C)cc1
composite z-score: 0.558
--
COMPOUND: CC(C)[Si](C#CCCCC#N)(O[C@H](c1ccccc1)c1cn(Cc2cccc(Cl)c2)nn1)C(C)C
composite z-score: 0.634
--
COMPOUND: O=C1O[C@@H](c2ccccc2)[C@@H](c2ccccc2)N2[C@@H](c3ccc(OCCO)cc3)[C@]3(C(=O)Nc4ccc(C#CCCO)cc43)[C@@H](C(=O)NC[C@H](O)c3ccccc3)[C@H]12
composite z-score: 0.25
--
COMPOUND: [N-]=[N+]=Nc1ccccc1C[C@@]1(C(=O)N2CCCCC2)N=C(c2ccc(OCCCO)cc2)O[C@@H]1c1ccccc1N=[N+]=[N-]
composite z-score: -0.145
--
COMPOUND: CN(C)CCCCNC(=O)[C@@H]1C[C@@H]2C(=O)N[C@@H](CCCCN)C(=O)N2[C@@H]1c1ccc(O)cc1
composite z-score: 0.886
--
COMPOUND: COc1ccc([Si](C)(C)[C@H]2[C@H](CCn3cc([C@H](O)c4ccccc4)nn3)O[C@@]3(C(=O)N(C)c4ccccc43)[C@@H]2C)cc1
composite z-score: -0.759
--
COMPOUND: COc1cc(CO)cc(I)c1O[C@H]1C=C(C(=O)NCCO)C[C@@H](N(C(=O)c2cc3ccccc3oc2=O)C2CCCCCC2)[C@@H]1O
composite z-score: -0.0138

====

- EXPERIMENTAL SYSTEM: Dickkopf-related protein 1 (Homo sapiens) (UniProt O94907)
- Sequence (O94907 whole entry, looked up): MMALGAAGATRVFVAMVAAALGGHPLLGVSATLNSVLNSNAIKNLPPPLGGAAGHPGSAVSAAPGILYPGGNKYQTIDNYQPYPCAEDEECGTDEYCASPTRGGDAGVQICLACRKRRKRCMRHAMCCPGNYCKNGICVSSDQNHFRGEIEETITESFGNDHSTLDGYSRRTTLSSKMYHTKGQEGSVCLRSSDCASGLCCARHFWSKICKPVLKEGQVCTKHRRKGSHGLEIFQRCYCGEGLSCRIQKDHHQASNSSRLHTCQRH
- MEASUREMENT PROTOCOL: small molecules binding DKK1 protein – biochemical, small-molecule microarray, 635 nm fluorescence scan, primary screen (AID 1106);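 note: score merges emission near 667 nm with signal to noise over three replicate slides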
- CONDITIONS: higher = more signal
Please mark Yes if the recorded composite z-score is equal to or greater than -0.2, and No if it falls below.

COMPOUND: CCC(CC)C(O)C1C=CC2C(=O)N(c3ccccc3)C(=O)C2N1Nc1ccccc1 (stereo not drawn)
QUALITATIVE LABEL: Yes

COMPOUND: OB1C=CCC(CCc2ccccc2)O1 (stereo not drawn)
QUALITATIVE LABEL: Yes

COMPOUND: Cc1ccc(S(=O)(=O)N2C[C@@H](C(=O)O)[C@H](Sc3ccccc3)C[C@H]2c2ccccc2)cc1
QUALITATIVE LABEL: No

COMPOUND: C=CCN(Cc1ccccc1)C(=O)C(c1cccs1)N(C(=O)/C=C\C(=O)O)c1ccc(CCOCCO)cc1 (stereo not drawn)
QUALITATIVE LABEL: No

COMPOUND: C#CCOc1ccc(C[C@@H](C(=O)OC)N(CC#C)[C@@H](/C=C/C2CC2)[C@H](O)Cc2ccccc2)cc1
QUALITATIVE LABEL: No

COMPOUND: COc1ccccc1CN1C(=O)c2ccccc2[C@@H](C(=O)NCc2ccccc2)[C@@H]1c1ccc(CO)cc1
QUALITATIVE LABEL: No

COMPOUND: COC(=O)C(CC#Cc1ccc2c(c1)[C@]1(C(=O)N2)[C@H](c2ccccc2OCCO)N2[C@H](c3ccccc3)[C@H](c3ccccc3)OC(=O)[C@H]2[C@@H]1C(N)=O)C(=O)OC
QUALITATIVE LABEL: No

COMPOUND: COC(=O)[C@@]1(Cc2ccc(F)cc2)[C@H]2c3cc(C(=O)N(C)C)n(Cc4ccc(C)o4)c3C[C@H]2CN1C(=O)c1ccccc1
QUALITATIVE LABEL: No
